Exercise: for every item that follows, state its recorded IC50.
target: BACE1 (Homo sapiens); assay: In Vitro Enzymatic BACE FRET (Fluorescence Resonance Energy Transfer) Assay; format: biochemical; settings: Table IV, class symbols; read-out: BACE1 FRET assay

CC(C)Oc1ccc(-c2cc3c(cn2)Oc2ccc(-c4cccnc4)cc2[C@@]32COC(N)=N2)cc1 [compound 851]	< 100 nM
CC(C)(C)C#Cc1ccc2c(c1)[C@]1(COC(N)=N1)c1cc(C#CC(C)(C)C)ncc1O2 [compound 847]	100 to 1000 nM
COc1ccc2c(c1)[C@]1(COC(N)=N1)c1cc(NC(=O)c3ccccc3)ccc1O2 [compound 616]	1000 to 5000 nM
NC1=N[C@@]2(CO1)c1cc(-c3cccnc3)ccc1Oc1cnc(C(=O)CCCCO)cc12 [compound 612]	< 100 nM

I'm hoping you can list IC50 for every molecule here, please.
1. CC(C)(C)OC(=O)N1CC=C(c2ccc3c(c2)[C@]2(COC(N)=N2)c2cc(-c4cccnc4)ccc2O3)CC1 [compound 819]
2. Cc1nc(C)c(-c2ccc3c(c2)[C@@]2(COC(N)=N2)c2cc(OCC(C)(C)C)ccc2O3)s1 [compound 837]
3. Cc1ccccc1-c1ccc2c(c1)[C@]1(COC(N)=N1)c1cccnc1O2 [compound 609]
4. Cn1cc(-c2ccc3c(c2)[C@]2(COC(N)=N2)c2cc(-c4cccnc4F)ccc2O3)cn1 [compound 642]
5. COc1ccc(-c2ccc3c(c2)[C@]2(COC(N)=N2)c2cc(-c4cncnc4)ccc2O3)cc1 [compound 892]
6. CC(C)(C)C#Cc1ccc2c(c1)[C@]1(COC(N)=N1)c1cc(C3=CCOCC3)ncc1O2 [compound 800]
7. COc1ccc2c(c1)[C@]1(COC(N)=N1)c1c(ccc(-c3cncnc3)c1F)O2 [compound 814]

1: < 100 nM; 2: 100 to 1000 nM; 3: > 5000 nM; 4: < 100 nM; 5: < 100 nM; 6: 100 to 1000 nM; 7: < 100 nM

Parameters: items (list). Returns: IC50 for each item.
1. NC1=N[C@]2(CO1)c1cc(CCC3(O)CCC3)ccc1Oc1ccc(-c3cncnc3)cc12 [compound 797]
2. NC1=N[C@]2(CO1)c1cc(C3=CCSCC3)ccc1Oc1ccc(-c3cncnc3)cc12 [compound 831]
3. NC1=N[C@@]2(CO1)c1cc(Br)ccc1Oc1ccc(Cl)nc12 [compound 855]
4. N#Cc1cccc(-c2ccc3c(c2)[C@]2(COC(N)=N2)c2cccnc2O3)c1 [compound 610]
5. NC1=N[C@]2(CO1)c1cc(-c3cncnc3)ccc1Oc1c(F)cc(C3=CCOCC3)cc12 [compound 637]

1: < 100 nM; 2: < 100 nM; 3: > 5000 nM; 4: 100 to 1000 nM; 5: 1000 to 5000 nM

###

For each entry below, report its IC50 value.
biological target: BACE1 (Homo sapiens, UniProt P56817); experiment: In Vitro Enzymatic BACE FRET (Fluorescence Resonance Energy Transfer) Assay; type: biochemical; conditions: Table IV, class symbols; read-out: BACE1 FRET assay
Sequence (P56817 46-501, species assumed): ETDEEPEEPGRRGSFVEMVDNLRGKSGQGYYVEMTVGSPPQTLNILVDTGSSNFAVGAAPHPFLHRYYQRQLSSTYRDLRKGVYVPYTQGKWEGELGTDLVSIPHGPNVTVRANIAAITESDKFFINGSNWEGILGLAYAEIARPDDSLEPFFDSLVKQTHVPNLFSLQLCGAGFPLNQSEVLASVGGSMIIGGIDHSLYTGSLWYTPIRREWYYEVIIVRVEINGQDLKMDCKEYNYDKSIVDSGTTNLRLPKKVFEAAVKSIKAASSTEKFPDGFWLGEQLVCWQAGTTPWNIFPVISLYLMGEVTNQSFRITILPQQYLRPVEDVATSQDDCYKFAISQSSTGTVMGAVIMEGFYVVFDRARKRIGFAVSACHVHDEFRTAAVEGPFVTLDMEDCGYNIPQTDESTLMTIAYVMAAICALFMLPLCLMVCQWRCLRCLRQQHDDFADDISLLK

State recorded IC50 for all listed compounds.
1. COc1ccc2c(c1)[C@]1(COC(N)=N1)c1cc(NC(=O)[C@H](C)OC)ccc1O2
2. NC1=N[C@@]2(CO1)c1cc(-c3cccnc3)ccc1Oc1ncc(N3CCOCC3)cc12

1. 1000 to 5000 nM
2. < 100 nM

Each compound below has a recorded value; state its IC50.
1. CN(C)C(=O)c1ccc2c(c1)[C@]1(COC(N)=N1)c1cc(OCC(C)(C)C)ccc1O2
2. CC(C)(O)C#Cc1cnc2c(c1)[C@]1(COC(N)=N1)c1cc(-c3ccc(F)nc3)ccc1O2
3. CC(C)(C)COc1ccc2c(c1)[C@]1(COC(N)=N1)c1cc(-c3cccnc3F)cnc1O2
4. NC1=N[C@@]2(CO1)c1ccccc1Oc1ccc(-c3cc4ccccc4o3)cc12

1. 100 to 1000 nM
2. < 100 nM
3. < 100 nM
4. 1000 to 5000 nM

Consider the following items and state reported IC50 for each.
1. NC1=N[C@@]2(CO1)c1cc(-c3cccnc3)ccc1Oc1cnc(C3=CCCCC3)cc12
2. CC(=O)/C=C/c1ccc2c(c1)[C@]1(COC(N)=N1)c1cc(-c3cncnc3)ccc1O2
3. NC1=N[C@]2(CO1)c1cc(Br)ccc1Oc1c(F)cccc12
4. NC1=N[C@@]2(CO1)c1ccccc1Oc1ccc(-c3cnc4ccccc4c3)cc12
5. CC(C)(C)COc1ccc2c(c1)[C@]1(COC(N)=N1)c1cc(-c3cccnc3Cl)ccc1O2

1. < 100 nM
2. < 100 nM
3. > 5000 nM
4. > 5000 nM
5. < 100 nM

Provide reported IC50 for each item, in the same order as listed.
1. CC(C)(C#N)COc1ccc2c(c1)[C@@]1(COC(N)=N1)c1cc(-c3ccccc3)cnc1O2
2. CC(C)(C)COc1ccc2c(c1)[C@]1(COC(N)=N1)c1cc(-c3cccnc3C(F)(F)F)ccc1O2
3. NC1=N[C@@]2(CO1)c1cc(-c3cccnc3)ccc1Oc1ccc(-c3cnoc3)cc12
4. COc1cnc2c(c1)[C@]1(COC(N)=N1)c1cc(Br)ccc1O2
5. Cc1cc(-c2ccc3c(c2)[C@]2(COC(N)=N2)c2cc(-c4ccc(F)nc4)ccc2O3)on1

1. < 100 nM
2. 100 to 1000 nM
3. < 100 nM
4. 1000 to 5000 nM
5. < 100 nM
